Tested on: human APOE RNA
Assay: Potency (dose response, ED50) in APOE C57BL/6NTac-Apoeem7250 knock-in mice, 4 weeks (Example 14)
Format: in vivo
Details: spinal cord, ICV dose 700 μg
Strand notation (5' to 3'): a small letter for the sugar, then the base; units joined by * are phosphorothioate-linked, units joined directly phosphodiester-linked; [ ] holds rarer units or linkages, { } end groups; capitals alone tell only the bases. [ms] = mesyl phosphoramidate linkage; e = 2'-O-(2-methoxyethyl) (MOE); k = constrained ethyl (cEt); [5mC] = 5-methylcytosine; d = 2'-deoxy (DNA)
endpointLabel: APOE RNA (% control) Spinal Cord
Please give the number followed by its unit.

Query block: Lookup: APOE RNA (% control) Spinal Cord / human APOE RNA / 1693105: 6-10-4 MOE gapmer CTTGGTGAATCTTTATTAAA, linkages sosssszzzssssszssss (e[5mC]*eTeT*eG*eG*eT*dG[ms]dA[ms]dA[ms]dT*d[5mC]*dT*dT*dT*dA[ms]dT*eT*eA*eA*eA) [compound 1693105]
Result block: 61 % control

Query block: Next up: 1778154: modified oligonucleotide complementary to human APOE RNA (e[5mC]*eT*eTeGeGeT*dG[ms]dA[ms]dA*dT*d[5mC]*dT*dT*dT*dA*dT*kTkAeA*eA; antisense) [compound 1778154]
Result block: 47 % control

Query block: Next up: Aes^mCeoTeoTesGesGksTdsGdzAdzAdzTds^mCdsTdsTdsTdsAdzTksTksAesAe (eA*e[5mC]eTeT*eG*kG*dT*dG[ms]dA[ms]dA[ms]dT*d[5mC]*dT*dT*dT*dA[ms]kT*kT*eA*eA) [Compound No. 1757576]
Result block: 18 % control

Query block: Next up: 1746809 (k[5mC]*dT[ms]kT*dG[ms]kG*dT[ms]dG[ms]dA[ms]dA[ms]dT*d[5mC]*dT*dT*dT*dA[ms]dT*dT[ms]kA*kA*kA; antisense) [Compound 1746809]
Result block: 64 % control

Query block: Next up: 1785598: modified oligonucleotide complementary to human APOE RNA (k[5mC]*kT*kT*dG[ms]dG[ms]dT[ms]dG[ms]dA[ms]dA[ms]dT*d[5mC]*dT*dT*dT*dA*dT[ms]kT*kA*dA[ms]kA; antisense) [compound 1785598]
Result block: 41 % control

Query block: Next up: 1778130: modified oligonucleotide complementary to human APOE RNA (eA*e[5mC]eTeTeG*kG*dT*dG[ms]dA[ms]dA*dT*d[5mC]*dT*dT*dT*dA[ms]kTkT*eA*eA; antisense) [compound 1778130]
Result block: 32 % control

Query block: Next up: 1757575 (eA*e[5mC]eTeT*kG*kG*dT*dG[ms]dA[ms]dA[ms]dT*d[5mC]*dT*dT*dT*dA[ms]kT*eT*eA*eA; antisense) [Compound 1757575]
Result block: 51 % control

Query block: Next up: 1778131: modified oligonucleotide complementary to human APOE RNA (eA*e[5mC]eTeTeGkG*dT*dG[ms]dA[ms]dA*dT*d[5mC]*dT*dT*dT*dA[ms]kTkT*eA*eA; antisense) [compound 1778131]
Result block: 34 % control
